system: gene editing with dCas9; experiment: Screen of 322 new SSAP proteins, gene editing activity with dCas9 (Table 5); assay type: cell-based; details: normalized
READOUT LABEL: dCas9 with SSAP activity (normalized)

MOLECULE	dCas9 with SSAP activity (normalized)
SSAP_12: SEQ ID NO: 181 (protein) STALATLAGKLAERVGMDSVDPQELITTLRQTAFKGDASDAQFIALLIVANQYGLNPWTKEIYAFPDKQNGIVPVVGVDGWSRIINENQQFDGMDFEQDNESCTCRIYRKDRNHPICVTEWMDECRREPFKTREGREITGPWQSHPKRMLRHKAMIQCARLAFGFAGIYDKDEAERIVENTAYTAERQPERDITPVNDETMQEINTLLIALDKTWDDDLLPLCSQIFRRDIRASSELTQAEAVKALGFLKQKASEQKVAA	−1.196

Attention now shifts to the item below.
## Task Looking for the measured dCas9 with SSAP activity (normalized) of SSAP_98: SEQ ID NO: 267; Pseudomonas fluorescens (protein, listed as Pseudomonas fluorescens) NSTAETATPFSSQDLEKTQPTKAQSKTGSLASLLASPKMKSQFAAALPKHMTPERMARIVTTEIRKNPELVKCEQHSFLGAVIQCAQLGLEPGNTLGHAYILPYGKQAQLIIGYRGMIDLARRSGQIISISARTVREGDYFEYEFGLDENLIHRPVETTQPGAVTHVYAVARLKDGGRQFEVMSRAQIEEVRVQSKAAKSGPWVTHWEEMAKKTVIRRVFKYLPVSVEIQRAVMLDEKAEAGVCQENECVFDGDFEVITDTEE , can you help?
## Result −0.444
